# measurement.target: UniProtKB Q13133
# Sequence (whole entry): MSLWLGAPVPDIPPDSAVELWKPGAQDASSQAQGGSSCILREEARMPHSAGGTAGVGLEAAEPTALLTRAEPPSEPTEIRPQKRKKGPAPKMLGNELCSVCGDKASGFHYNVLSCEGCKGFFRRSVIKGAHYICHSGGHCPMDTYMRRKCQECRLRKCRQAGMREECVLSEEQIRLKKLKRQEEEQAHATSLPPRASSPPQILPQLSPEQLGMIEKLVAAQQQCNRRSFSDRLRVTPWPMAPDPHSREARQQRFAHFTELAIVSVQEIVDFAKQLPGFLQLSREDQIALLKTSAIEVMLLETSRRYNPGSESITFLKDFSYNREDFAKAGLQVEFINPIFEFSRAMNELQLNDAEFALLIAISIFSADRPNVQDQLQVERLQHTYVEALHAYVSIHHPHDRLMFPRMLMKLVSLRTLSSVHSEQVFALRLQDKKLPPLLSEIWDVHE
# protocol: Agonist activity at human LXRalpha transfected in HEK293 cells at 0.1 uM after 24 hrs by luciferase reporter gene assay relative to vehicle-treated control
# Format: cell-based
measurement.name: fold change (FC)

A: O=C(O)Cc1cccc(OCCCN(Cc2cccc(C(F)(F)F)c2Cl)CC(c2ccccc2)c2ccccc2)c1
B: Nc1ccc(C(=O)/C=C/c2ccc3ccccc3c2)c(O)c1
Q: Higher fold change (FC) between A and B ? Choose, then provide that item's label.
Ans: A

###

# Tested on: HepG2
# protocol: Induction of intracellular triglyceride accumulation in human HepG2 cells at 1 uM after 4 days relative to vehicle-treated control
# Type: cell-based
# particulars: hepg2, 96 h
measurement.name: Activity (%)

Nc1ccc(C(=O)/C=C/c2ccc3ccccc3c2)c(O)c1 : -21
O=C(O)Cc1cccc(OCCCN(Cc2cccc(C(F)(F)F)c2Cl)CC(c2ccccc2)c2ccccc2)c1 : 43
Cc1ccc(/C=C/C(=O)c2ccc(N)cc2O)o1 : -0.3

A: O=S(=O)(c1ccccc1)N(CC(F)(F)F)c1ccc(C(O)(C(F)(F)F)C(F)(F)F)cc1
B: O=c1cc(-c2c[nH]c3ccccc23)oc2cc(O)ccc12
Q: Higher Activity between A and B ? Choose, then provide that item's label.
Ans: A
(A: 175%, B: -6%)

###

# System: HepG2
# protocol: Induction of intracellular triglyceride accumulation in human HepG2 cells at 10 uM after 4 days relative to vehicle-treated control
# Format: cell-based
# particulars: hepg2, 96 h
measurement.name: Activity (%)

Nc1ccc(C(=O)/C=C/c2ccc3ccccc3c2)c(O)c1 : 19

1: O=C(O)Cc1cccc(OCCCN(Cc2cccc(C(F)(F)F)c2Cl)CC(c2ccccc2)c2ccccc2)c1
2: Cc1ccc(/C=C/C(=O)c2ccc(N)cc2O)o1
3: O=c1cc(-c2c[nH]c3ccccc23)oc2cc(O)ccc12
Q: Put the compounds in ascending order of Activity. I'd appreciate it if you listed the labels in the requested order.
Ans: 2, 3, 1
(2: -0.3%, 3: 18%, 1: 242%)

###

# measurement.target: Oxysterols receptor LXR-beta (Mus musculus)
# protocol: Agonist activity at LXRbeta in mouse RAW264.7 cells assessed as induction of ABCA1 promoter activation at 1 uM after 24 hrs by Dual-Glo luciferase reporter gene assay relative to vehicle-treated control
# Assay type: cell-based
measurement.name: fold change (FC)

Cc1ccc(-c2cc(=O)c3ccc(N)cc3o2)o1 : 1.3

a: O=C(O)c1ccc(-c2cc(=O)c3ccc(O)cc3o2)cc1
b: CC(C)OC(=O)C(C)(C)Oc1ccc(C(=O)c2ccc(Cl)cc2)cc1
Q: Higher fold change (FC) between a and b ? Choose, then provide that item's label.
Ans: a
